The measurements presented in this section are drawn from patent US11746116B2.

Reported MIC, VSE775 values for a set of compounds
- System: VSE775
- Method description: MIC, microdilution broth method
- Type: cell-based, Enterococcus faecalis
- Set-up: unit not given beside the values
- Applied conditions: ESKAPE panel, Gram-positive

# Smiles input, MIC, VSE775
data = [
    ("Cc1cc(N2CCN(c3c(F)cc4c(=O)c(C(=O)O)cn5c4c3OC[C@@H]5C)CC2)nc(C(C)C)n1", 1),
    ("C[C@H]1COc2c(N3CC[C@@H](N)C3)c(F)cc3c(=O)c(C(=O)O)cn1c23", "1-4"),
    ("C[C@H]1COc2c(N3CCN(c4ncc(F)cn4)CC3)c(F)cc3c(=O)c(C(=O)O)cn1c23", "< 0.125 - 0.5"),
]
